What MFC was measured for each of the following?
tested on: Pichia kudriavzevii; experiment: Fungicidal activity against Candida krusei ATCC 6258 after 18 to 24 hrs by Alamar blue assay; assay type: functional
Non-standard residues stand in square brackets, D forms with d. Residues, ends and D or L forms follow the SMILES beside them. Ala(9-anthryl) = N[C@@H](Cc1c2ccccc2cc2ccccc12)C(=O)O; His(τ-Bzl) = N[C@@H](Cc1cn(Cc2ccccc2)cn1)C(=O)O; Phe(4-Me) = Cc1ccc(C[C@H](N)C(=O)O)cc1; Cha = N[C@@H](CC1CCCCC1)C(=O)O; Orn = NCCC[C@H](N)C(=O)O; Dab = NCC[C@H](N)C(=O)O
Express the result in µg/mL but write the number alone.

Prompt: Test system Pichia kudriavzevii; read-out MFC; what value for Cc1ccc(C[C@H](NC(=O)[C@@H](Cc2ccccc2)NC(=O)[C@@H](Cc2c[nH]c3ccccc23)NC(=O)[C@@H](N)CCCN)C(=O)N[C@H](Cc2ccccc2)C(=O)N[C@H](CCCCN)C(N)=O)cc1 (H-[Orn][dW][dF][Phe(4-Me)][dF][dK]-NH2) ?
Response: 20

Prompt: Continue with Cc1ccc(C[C@H](NC(=O)[C@@H](Cc2ccccc2)NC(=O)[C@@H](Cc2c[nH]c3ccccc23)NC(=O)[C@@H](N)CCCN)C(=O)N[C@H](Cc2ccccc2)C(=O)N[C@@H](CCCN)C(N)=O)cc1 (H-[Orn][dW][dF][Phe(4-Me)][dF][Orn]-NH2)
Response: 20

Prompt: Continue with CC[C@H](C)[C@H](NC(=O)[C@H](CC1CCCCC1)NC(=O)[C@@H](Cc1c[nH]c2ccccc12)NC(=O)[C@@H](N)CCCN)C(=O)N[C@@H](Cc1c2ccccc2cc2ccccc12)C(=O)N[C@@H](Cc1cn(Cc2ccccc2)cn1)C(N)=O (H-[Orn][dW][Cha]I[Ala(9-anthryl)][His(τ-Bzl)]-NH2)
Response: 10

Prompt: Continue with Cc1ccc(C[C@H](NC(=O)[C@@H](Cc2ccccc2)NC(=O)[C@@H](Cc2c[nH]c3ccccc23)NC(=O)[C@@H](N)CCCN)C(=O)N[C@H](Cc2ccccc2)C(=O)N[C@@H](CCN)C(N)=O)cc1 (H-[Orn][dW][dF][Phe(4-Me)][dF][Dab]-NH2)
Response: 20

* * *

system: Pichia kudriavzevii; assay: Fungicidal activity against Candida krusei ATCC 6258 after 18 to 24 hrs by Alamar blue assay; format: functional
Non-standard residues stand in square brackets, D forms with d. Residues, ends and D or L forms follow the SMILES beside them. His(τ-Bzl) = N[C@@H](Cc1cn(Cc2ccccc2)cn1)C(=O)O; Cha = N[C@@H](CC1CCCCC1)C(=O)O; Orn = NCCC[C@H](N)C(=O)O
parameter-measured: MFC (µg/mL)
Express the result in µg/mL but write the number alone.

Prompt: Consider the molecule shown here: CC[C@@H](C)[C@@H](NC(=O)[C@H](CC1CCCCC1)NC(=O)[C@@H](Cc1c[nH]c2ccccc12)NC(=O)[C@@H](N)CCCN)C(=O)N[C@H](Cc1ccccc1)C(=O)N[C@@H](Cc1cn(Cc2ccccc2)cn1)C(N)=O (H-[Orn][dW][Cha][dI][dF][His(τ-Bzl)]-NH2) What is its recorded MFC?
Response: 10

Prompt: Continue with CC[C@H](C)[C@H](NC(=O)[C@H](CC1CCCCC1)NC(=O)[C@@H](Cc1c[nH]c2ccccc12)NC(=O)[C@@H](N)CCCN)C(=O)N[C@@H](CC1CCCCC1)C(=O)N[C@@H](Cc1cn(Cc2ccccc2)cn1)C(N)=O (H-[Orn][dW][Cha]I[Cha][His(τ-Bzl)]-NH2)
Response: 20

* * *

What MIC was measured for each of the following?
test system: Staphylococcus aureus; test: Anti-bacterial activity against Staphylococcus aureus ATCC 29213 by CLSI method; format: functional; details: Staphylococcus aureus, ATCC 29213
Non-standard residues stand in square brackets, D forms with d. Residues, ends and D or L forms follow the SMILES beside them. His(τ-Bzl) = N[C@@H](Cc1cn(Cc2ccccc2)cn1)C(=O)O; Phe(4-Me) = Cc1ccc(C[C@H](N)C(=O)O)cc1; Cha = N[C@@H](CC1CCCCC1)C(=O)O; Orn = NCCC[C@H](N)C(=O)O
Express the result in µg/mL but write the number alone.

Prompt: Test system Staphylococcus aureus; read-out MIC; what value for CC(C)C[C@@H](NC(=O)[C@H](CC1CCCCC1)NC(=O)[C@@H](Cc1c[nH]c2ccccc12)NC(=O)[C@@H](N)CCCN)C(=O)N[C@H](Cc1ccccc1)C(=O)N[C@@H](Cc1cn(Cc2ccccc2)cn1)C(N)=O (H-[Orn][dW][Cha][dL][dF][His(τ-Bzl)]-NH2) ?
Response: 20

Prompt: Continue with Cc1ccc(C[C@H](NC(=O)[C@@H](Cc2ccccc2)NC(=O)[C@@H](Cc2c[nH]c3ccccc23)NC(=O)[C@@H](N)CCCCN)C(=O)N[C@H](Cc2ccccc2)C(=O)N[C@@H](Cc2cn(Cc3ccccc3)cn2)C(N)=O)cc1 (H-K[dW][dF][Phe(4-Me)][dF][His(τ-Bzl)]-NH2)
Response: 20

* * *

test system: Nakaseomyces glabratus; assay: Fungicidal activity against Candida glabrata ATCC 90030 after 18 to 24 hrs by Alamar blue assay; assay type: functional
Non-standard residues stand in square brackets, D forms with d. Residues, ends and D or L forms follow the SMILES beside them. Ala(9-anthryl) = N[C@@H](Cc1c2ccccc2cc2ccccc12)C(=O)O; His(τ-Bzl) = N[C@@H](Cc1cn(Cc2ccccc2)cn1)C(=O)O; 1Nal = N[C@@H](Cc1cccc2ccccc12)C(=O)O; Bta = N[C@@H](Cc1csc2ccccc12)C(=O)O; Cha = N[C@@H](CC1CCCCC1)C(=O)O; Orn = NCCC[C@H](N)C(=O)O
What MFC was measured for each of the following?
Express the result in µg/mL but write the number alone.

Prompt: Consider the molecule shown here: NCCC[C@H](N)C(=O)N[C@H](Cc1c[nH]c2ccccc12)C(=O)N[C@@H](CC1CCCCC1)C(=O)N[C@@H](Cc1csc2ccccc12)C(=O)N[C@H](Cc1ccccc1)C(=O)N[C@@H](Cc1cn(Cc2ccccc2)cn1)C(N)=O (H-[Orn][dW][Cha][Bta][dF][His(τ-Bzl)]-NH2) What is its recorded MFC?
Response: 10

Prompt: Continue with CC[C@H](C)[C@H](NC(=O)[C@H](CC1CCCCC1)NC(=O)[C@@H](Cc1c[nH]c2ccccc12)NC(=O)[C@@H](N)CCCN)C(=O)N[C@@H](Cc1csc2ccccc12)C(=O)N[C@@H](Cc1cn(Cc2ccccc2)cn1)C(N)=O (H-[Orn][dW][Cha]I[Bta][His(τ-Bzl)]-NH2)
Response: 20

Prompt: Continue with NCCC[C@H](N)C(=O)N[C@H](Cc1c[nH]c2ccccc12)C(=O)N[C@@H](CC1CCCCC1)C(=O)N[C@@H](Cc1cccc2ccccc12)C(=O)N[C@H](Cc1ccccc1)C(=O)N[C@@H](Cc1cn(Cc2ccccc2)cn1)C(N)=O (H-[Orn][dW][Cha][1Nal][dF][His(τ-Bzl)]-NH2)
Response: 20

Prompt: Continue with CC[C@H](C)[C@H](NC(=O)[C@H](CC1CCCCC1)NC(=O)[C@@H](Cc1c[nH]c2ccccc12)NC(=O)[C@@H](N)CCCN)C(=O)N[C@@H](Cc1c2ccccc2cc2ccccc12)C(=O)N[C@@H](Cc1cn(Cc2ccccc2)cn1)C(N)=O (H-[Orn][dW][Cha]I[Ala(9-anthryl)][His(τ-Bzl)]-NH2)
Response: 20

* * *

test system: Pichia kudriavzevii; assay: Fungicidal activity against Candida krusei ATCC 6258 after 18 to 24 hrs by Alamar blue assay; format: functional
Non-standard residues stand in square brackets, D forms with d. Residues, ends and D or L forms follow the SMILES beside them. His(τ-Bzl) = N[C@@H](Cc1cn(Cc2ccccc2)cn1)C(=O)O; Phe(4-Me) = Cc1ccc(C[C@H](N)C(=O)O)cc1; Cha = N[C@@H](CC1CCCCC1)C(=O)O; Phg = N[C@H](C(=O)O)c1ccccc1; dOrn = NCCC[C@@H](N)C(=O)O; Orn = NCCC[C@H](N)C(=O)O
What MFC was measured for each of the following?
Express the result in µg/mL but write the number alone.

Prompt: Consider the molecule shown here: Cc1ccc(C[C@H](NC(=O)[C@@H](Cc2ccccc2)NC(=O)[C@@H](Cc2c[nH]c3ccccc23)NC(=O)[C@@H](N)CCCN)C(=O)N[C@H](Cc2ccccc2)C(=O)N[C@H](CCCN)C(N)=O)cc1 (H-[Orn][dW][dF][Phe(4-Me)][dF][dOrn]-NH2) What is its recorded MFC?
Response: 20

Prompt: Continue with Cc1ccc(C[C@H](NC(=O)[C@@H](Cc2ccccc2)NC(=O)[C@@H](Cc2c[nH]c3ccccc23)NC(=O)[C@@H](N)CCCN)C(=O)N[C@H](Cc2ccccc2)C(=O)N[C@H](Cc2c[nH]cn2)C(N)=O)cc1 (H-[Orn][dW][dF][Phe(4-Me)][dF][dH]-NH2)
Response: 10

Prompt: Continue with NCCC[C@H](N)C(=O)N[C@H](Cc1c[nH]c2ccccc12)C(=O)N[C@@H](CC1CCCCC1)C(=O)N[C@@H](CC1CCCCC1)C(=O)N[C@H](Cc1ccccc1)C(=O)N[C@@H](Cc1cn(Cc2ccccc2)cn1)C(N)=O (H-[Orn][dW][Cha][Cha][dF][His(τ-Bzl)]-NH2)
Response: 10

Prompt: Continue with Cc1ccc(C[C@H](NC(=O)[C@@H](Cc2ccccc2)NC(=O)[C@@H](Cc2c[nH]c3ccccc23)NC(=O)[C@@H](N)CCCN)C(=O)N[C@H](Cc2ccccc2)C(=O)N[C@H](CCCNC(=N)N)C(N)=O)cc1 (H-[Orn][dW][dF][Phe(4-Me)][dF][dR]-NH2)
Response: 20

Prompt: Continue with NCCC[C@H](N)C(=O)N[C@H](Cc1c[nH]c2ccccc12)C(=O)N[C@@H](CC1CCCCC1)C(=O)N[C@H](C(=O)N[C@H](Cc1ccccc1)C(=O)N[C@@H](Cc1cn(Cc2ccccc2)cn1)C(N)=O)c1ccccc1 (H-[Orn][dW][Cha][Phg][dF][His(τ-Bzl)]-NH2)
Response: 10

Prompt: Continue with CC(C)[C@@H](NC(=O)[C@H](CC1CCCCC1)NC(=O)[C@@H](Cc1c[nH]c2ccccc12)NC(=O)[C@@H](N)CCCN)C(=O)N[C@H](Cc1ccccc1)C(=O)N[C@@H](Cc1cn(Cc2ccccc2)cn1)C(N)=O (H-[Orn][dW][Cha][dV][dF][His(τ-Bzl)]-NH2)
Response: 20
